Property: IC50; scope: individual compounds
assayed target: EHMT2 (Euchromatic histone-lysine N-methyltransferase 2) (Homo sapiens (Human), UniProt Q96KQ7)
Sequence (Q96KQ7 whole entry): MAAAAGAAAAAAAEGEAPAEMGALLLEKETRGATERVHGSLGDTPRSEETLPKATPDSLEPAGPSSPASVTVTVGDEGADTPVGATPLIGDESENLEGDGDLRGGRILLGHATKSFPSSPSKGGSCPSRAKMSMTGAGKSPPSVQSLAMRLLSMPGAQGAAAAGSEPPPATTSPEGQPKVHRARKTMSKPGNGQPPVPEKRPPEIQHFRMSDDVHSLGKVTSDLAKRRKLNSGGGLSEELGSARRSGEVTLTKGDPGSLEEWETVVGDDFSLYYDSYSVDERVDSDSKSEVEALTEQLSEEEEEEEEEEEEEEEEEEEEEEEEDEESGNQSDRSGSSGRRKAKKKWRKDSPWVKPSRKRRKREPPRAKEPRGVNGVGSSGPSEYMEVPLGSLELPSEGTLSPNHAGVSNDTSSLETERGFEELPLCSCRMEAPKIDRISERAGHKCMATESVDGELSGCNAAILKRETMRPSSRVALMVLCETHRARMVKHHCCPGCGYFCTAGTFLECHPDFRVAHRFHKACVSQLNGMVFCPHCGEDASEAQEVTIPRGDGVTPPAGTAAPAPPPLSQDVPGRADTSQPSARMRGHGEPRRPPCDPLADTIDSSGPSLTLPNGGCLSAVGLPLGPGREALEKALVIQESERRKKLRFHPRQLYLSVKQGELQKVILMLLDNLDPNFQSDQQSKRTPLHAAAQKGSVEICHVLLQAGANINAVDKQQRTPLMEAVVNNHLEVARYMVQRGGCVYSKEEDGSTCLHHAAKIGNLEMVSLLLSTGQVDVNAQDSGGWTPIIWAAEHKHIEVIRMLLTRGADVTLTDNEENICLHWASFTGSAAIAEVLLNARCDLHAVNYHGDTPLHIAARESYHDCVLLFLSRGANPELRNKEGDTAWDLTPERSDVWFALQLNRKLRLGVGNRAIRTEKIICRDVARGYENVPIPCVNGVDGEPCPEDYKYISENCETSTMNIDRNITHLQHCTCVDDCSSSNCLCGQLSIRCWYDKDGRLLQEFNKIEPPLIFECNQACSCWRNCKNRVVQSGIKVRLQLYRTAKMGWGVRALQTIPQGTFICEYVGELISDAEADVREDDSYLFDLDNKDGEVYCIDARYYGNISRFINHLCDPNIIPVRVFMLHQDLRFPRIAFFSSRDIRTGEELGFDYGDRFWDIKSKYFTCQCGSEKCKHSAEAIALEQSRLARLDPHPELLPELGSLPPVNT

structure as smiles	IC50
COc1cc2c(NC3CCN(C(C)C)CC3)nc(N3CCC(F)(F)CC3)nc2cc1C#CCCN(C)C	1 to 10 µM
COc1cc2c(NC3CCN(C(C)C)CC3)nc(N3CCCCC3)nc2cc1C#CCCC(=O)N1CCCC1	10 to 100 µM
COc1cc2c(NC3CCN(C(C)C)CC3)nc(N3CCCCC3)nc2cc1C#CCCN1CC[C@@H](F)C1	0.1 to 1 µM
COc1cc2c(NC3CCN(C4CC4)CC3)nc(N3CC[C@H](F)C3)nc2cc1C#CCCN1CCCC1	< 0.1 µM
COc1cc2c(NC3CCN(C(C)C)CC3)nc(N3CCC(F)(F)CC3)nc2cc1C#CCCN1CCCC1	1 to 10 µM
COc1cc2c(NC3CCN(C(C)C)CC3)nc(N3CCOCC3)nc2cc1C#CCCN(C)C	10 to 100 µM
CCN1CCC(Nc2nc(N3CCCN(C)CC3)nc3cc(C#CCCN4CCCC4)c(OC)cc23)CC1	< 0.1 µM
COc1cc2c(NC3CCN(C(C)C)CC3)nc(N3CCCC3)nc2cc1/C=C/CCN(C)C	0.1 to 1 µM
COc1cc2c(NC3CCN(C(C)C)CC3)nc(N3CCN(C)CC3)nc2cc1C#CCCN1CCCC1	0.1 to 1 µM
CCCN1CCC(Nc2nc(N3CCCCC3)nc3cc(C#CCCN4CCCC4)c(OC)cc23)CC1	< 0.1 µM
COc1cc2c(NC3CCN(C(C)C)CC3)nc(N3CCC(N(C)C)CC3)nc2cc1C#CCCN(C)C	1 to 10 µM
COc1cc2c(NC3CCN(Cc4ccccc4)CC3)nc(N3CCCCC3)nc2cc1C#CCCN(C)C	1 to 10 µM
COc1cc2c(NC3CCN(C(C)C)CC3)nc(N3C[C@@H]4C[C@@H]4[C@@H]3CO)nc2cc1C#CCCN1CCCCC1	< 0.1 µM
CCCN1CCC(Nc2nc(N(C)C)nc3cc(C#CCCN4CCCC4)c(OC)cc23)CC1	< 0.1 µM
CNc1nc(N2CCCC2)nc2cc(C#CCCN3CCCC3)c(OC)cc12	0.1 to 1 µM
COc1cc2c(NC3CCN(C4CC4)CC3)nc(N3CCCC3)nc2cc1C#CCCN1CCCC1	< 0.1 µM
COc1cc2c(NC3CCN(C(C)C)CC3)nc(N3CCC4(CCCC4)C3)nc2cc1C#CCCN(C)C	< 0.1 µM
COc1cc2c(NC3CCN(C(C)C)CC3)nc(N3CCCCC3)nc2cc1C#CCCN1CCC(C)CC1	1 to 10 µM
COc1cc2c(NC3CCN(C(C)C)CC3)nc(N3CCCCC3)nc2cc1C#CCCN1CC[C@H](F)C1	0.1 to 1 µM
COc1cc2c(NCC3CCN(C)CC3)nc(N3CCCCC3)nc2cc1C#CCCN(C)C	1 to 10 µM
COc1cc2c(NC3CC(C)(C)NC(C)(C)C3)nc(N3CCCCC3)nc2cc1C#CCCN(C)C	0.1 to 1 µM
CCN1CCC(Nc2nc(N3CCCC3)nc3cc(C#CCCN4CC[C@H](F)C4)c(OC)cc23)CC1	< 0.1 µM
COc1cc2c(NC3CCN(C(C)C)CC3)nc(N3CC[C@H](F)C3)nc2cc1C#CCCN1CCCC1	< 0.1 µM
COc1cc2c(NC3CCN(C(C)C)CC3)nc(N3C[C@@H]4C[C@@H]4[C@@H]3CO)nc2cc1C#CCCN1CCCC1	< 0.1 µM
COc1cc2c(NC3CCN(C(C)C)CC3)nc(N3CCCCCC3)nc2cc1C#CCCN(C)C	< 0.1 µM
COc1cc2c(NC3CCN(C(C)C)CC3)nc(N3CCCCC3)nc2cc1/C=C/CCN1CCCCC1	< 0.1 µM
COc1cc2c(NC3CCN(C(C)C)CC3)nc(N3CCCCCC3)nc2cc1C#CCCN1CCCCC1	0.1 to 1 µM
COc1cc2c(NC3CCN(C(C)C)CC3)nc(Nc3cnn(C)c3)nc2cc1C#CCCN1CCCC1	0.1 to 1 µM
CCCN1CCC(Nc2nc(N3CCCC3)nc3cc(C#CCCN4CCCC4)c(OC)cc23)CC1	< 0.1 µM
CCN1CCC(Nc2nc(N3CCCCC3)nc3cc(C#CCCN(C)C)c(OC)cc23)CC1	< 0.1 µM
COc1cc2c(NC3CCN(C4CC4)CC3)nc(N3CCCCC3)nc2cc1C#CCCN(C)C	< 0.1 µM

The origin of these recorded values is patent US20230365530A1.
